# assay.name: counter assay for TAg ATPase ADP read-out – biochemical, ADP-Hunter, fluorescence, counter-screen (AID 2501);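 also: purified T antigen ATPase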
# run.parameters: series mostly up to 100 µM
Out of some 2,200 compounds screened, about 1,200 (55%) were called active. So high a share suggests a set chosen from earlier hits. Some of the results follow.

molecule: CN(C)c1ccc(NC(=O)CSc2nnc(-c3cnccn3)n2C)cc1
IC50: 7.11 µM (active)
//
molecule: COc1cccc(C2C([N+](=O)[O-])=C(N)Oc3cc(C)oc(=O)c32)c1 (stereo unspecified)
IC50: inactive
//
molecule: COc1ccc(NC(=S)N/N=C/c2ccc(F)c(F)c2)cc1
IC50: 23.4 µM (active)
//
molecule: Oc1ccc(/C=N/NC(=S)NCCN2CCOCC2)c(O)c1
IC50: 4.25 µM (active)
//
molecule: O=c1cc(-c2ccc(Br)cc2)[nH][nH]1
IC50: 12.3 µM (active)
//
molecule: O=C1C2C3C=CC(CC3)C2C(=O)N1/N=C/c1ccc(O)c(O)c1 (stereo unspecified)
IC50: 5.65 µM (active)
//
molecule: COc1cc(/C=N/NC(=S)NCCN2CCOCC2)ccc1O
IC50: 2.37 µM (active)
//
molecule: COc1ccc(C(=O)N/N=C/c2ccc(OC)c(CN3CCc4cc(OC)c(OC)cc4C3C)c2)cc1 (stereo unspecified)
IC50: inactive
//
molecule: COc1ccc(/C=N/NC(=O)c2ccc(Br)cc2)cc1CN1CCOCC1
IC50: 13 µM (active)
//
molecule: Cc1ccc(C(=O)N2CCN3C(=O)c4ccccc4C23c2ccccc2)cc1 (stereo unspecified)
IC50: inactive
//
molecule: CC1(C)OC(=O)C(=NNc2ccc(O)cc2)C(=O)O1
IC50: 3.09 µM (active)

---

# assay.name: counter assay for TAg ATPase ADP read-out – biochemical, ADP-Hunter, fluorescence, counter-screen (AID 2501);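 also: purified T antigen ATPase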
# run.parameters: series mostly up to 100 µM
In all, about 2,200 compounds went through this assay and about 1,200 (55%) were called active. So high a share suggests a set chosen from earlier hits. This is one part of the list.

molecule: CC(=O)Nc1ccc(NC(=O)C(C)N2CCN(S(=O)(=O)c3ccc(C)cc3)CC2)cc1 (stereo not given)
IC50: inactive
--
molecule: CN(C)c1ccc(NC(=O)CCN2CCN(c3ccccn3)CC2)cc1
IC50: 4.88 µM (active)
--
molecule: O=C(CCn1cnc2ccccc21)N/N=C/c1ccc(O)cc1
IC50: 7.9 µM (active)
--
molecule: O=C(CCN1C(=O)/C(=C\C=C\c2ccccc2)SC1=S)Nc1ccc(C(=O)O)cc1
IC50: inactive
--
molecule: CCS(=O)(=O)c1ncc(Cl)c(C(=O)Nc2ccc(S(=O)(=O)N3CCC(C)CC3)cc2)n1
IC50: inactive
--
molecule: O=C(C[n+]1ccccc1)N/N=C/c1ccc(O)cc1
IC50: 3.04 µM (active)
--
molecule: Cc1ccsc1C(=O)N1CCCC(CCC(=O)N2CCN(c3ccccn3)CC2)C1 (stereo not given)
IC50: inactive
--
molecule: Cc1csc(NC(=O)NC2(C(F)(F)F)Oc3ccccc3O2)n1
IC50: 12 µM (active)
--
molecule: O=C(CC(=O)N/N=C/c1ccc(O)cc1)N/N=C/c1ccc(O)cc1
IC50: 1.98 µM (active)
--
molecule: CN(C)c1ccc(NC(=O)c2ccc(N3CCOCC3)nc2)cc1
IC50: 3.34 µM (active)

---

# assay.name: counter assay for TAg ATPase ADP read-out – biochemical, ADP-Hunter, fluorescence, counter-screen (AID 2501);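 also: purified T antigen ATPase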
# run.parameters: series mostly up to 100 µM
The campaign covered roughly 2,200 compounds. About 1,200 (55%) were called active. The limit is not given here; nearly all actives have IC50 up to about 92 µM. The set was probably picked from earlier hits. The list shows a part of the results.
Outcome codes: active, inactive

compound: O=c1[nH]ncc(N/N=C\c2ccc(O)cc2O)c1Cl
label: active
//
compound: CC(Cc1ccc(O)c(O)c1)C(C)Cc1ccc(O)c(O)c1 (configuration not stated)
label: active
//
compound: CN(C)c1ccc(NC(N)=S)cc1
label: active
//
compound: CCCCOC(=O)Nc1ccc(N(C)C)cc1
label: active
//
compound: CCCCOC(=O)c1ccc(NC(=O)Nc2ccc(OC)c(OC)c2)cc1
label: inactive
//
compound: O=C(Nn1cnnc1)C1Cc2ccccc2CN1S(=O)(=O)c1ccc(F)cc1 (configuration not stated)
label: inactive
//
compound: Cc1ccc(NC(=O)CNC(=O)c2cccs2)nc1
label: inactive
//
compound: CC(=O)NS(=O)(=O)c1ccc(NC(=S)NC(=O)Cc2ccccc2)cc1
label: inactive
//
compound: COc1ccccc1N1CCN(C(=O)C2CCN(S(=O)(=O)c3ccc(C)cc3)CC2)CC1
label: inactive
//
compound: Cc1cc(C(=O)c2cccs2)c(N)s1
label: active
//
compound: CCCCCCC1CCC(C(=O)N2CCOCC2)CC1 (configuration not stated)
label: inactive
//
compound: CC(=O)CSc1nc(C(F)(F)F)cc(=O)n1-c1ccccc1
label: inactive

---

# assay.name: counter assay for TAg ATPase ADP read-out – biochemical, ADP-Hunter, fluorescence, counter-screen (AID 2501);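 also: purified T antigen ATPase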
# run.parameters: series mostly up to 100 µM
Screen size: about 2,200 compounds; about 1,200 (55%) were called active. The limit is not given here; nearly all actives have IC50 up to about 92 µM. The set was probably picked from earlier hits. The list shows a part of the results.
Outcomes: TRUE (active), FALSE (inactive)

molecule: O=C(/C=C/c1cccc(Cl)c1)c1ccc([N+](=O)[O-])o1
label: FALSE
//
molecule: O=C(NC(=S)Nc1cccc(S(=O)(=O)NC2=NCCC2)c1)c1cc(-c2ccco2)nc2ccccc12
label: FALSE
//
molecule: S=c1[nH]nc(-c2n[nH]c3c2CCC3)n1/N=C/C=C/c1ccco1
label: TRUE
//
molecule: CCOC(=O)C1CCN(c2nc(N)c3c(N)nc(SCC(=O)O)cc3c2C#N)CC1
label: FALSE
//
molecule: COc1ccc2c(c1)c(C(=O)N/N=C/c1ccc(O)c(O)c1)c(C)n2C
label: TRUE
//
molecule: Cc1ccc(/C(O)=C2/C(=O)C(=O)OC2c2ccc(Cl)cc2)cc1 (stereo unspecified)
label: FALSE
//
molecule: Cc1nonc1C(=O)N/N=C/c1ccc(O)c(O)c1
label: TRUE
//
molecule: CCN1C(=O)CC(N2CCC(Nc3ccc(OC)cc3)CC2)C1=O (stereo unspecified)
label: TRUE
//
molecule: CN1CCc2cccc3c2[C@H]1Cc1ccc(O)c(O)c1-3
label: FALSE
//
molecule: CC(C)(C)NC(=O)COC(=O)c1cc(F)c(F)cc1Cl
label: FALSE
//
molecule: COc1ccc(C(=O)CCNc2ccc(C)c(Cl)c2)cc1
label: FALSE

---

# assay.name: counter assay for TAg ATPase ADP read-out – biochemical, ADP-Hunter, fluorescence, counter-screen (AID 2501);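 also: purified T antigen ATPase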
# run.parameters: series mostly up to 100 µM
Among all 2,200 compounds or so, about 1,200 (55%) were called active. Cut-off not given; nearly all actives show IC50 up to about 92 µM. The set was probably picked from earlier hits. Some of the results follow.
Outcomes: yes (1) for active, no (0) for inactive

compound: CCOC(=O)c1[nH]nc(-c2cc(CC)c(O)cc2O)c1-c1cscn1
label: yes (1)
//
compound: O=C1C(=Cc2ccc(Br)o2)C(=O)c2ccccc21
label: no (0)
//
compound: Cc1cc(NC(=O)c2noc3c2CCCCC3)no1
label: no (0)
//
compound: CN(C)S(=O)(=O)c1cccc(-n2sc3ccccc3c2=O)c1
label: yes (1)
//
compound: CCOC(=O)C1=C(C)N(c2ccccc2)C(=O)/C1=C\c1ccc(O)c(OC)c1
label: no (0)
//
compound: COc1ccc(/C=C2\C(=O)ON=C2c2ccccc2)cc1
label: no (0)
//
compound: O=c1[nH][nH]c(=S)n1C1CCCCC1
label: no (0)
//
compound: O=c1oc2cc(O)ccc2c2ccccc12
label: yes (1)
//
compound: CCN(CC)c1ccc(NC(=O)CCNC(=O)c2ccco2)cc1
label: yes (1)
//
compound: Nc1nc2ccc(N3CCOCC3)cc2s1
label: yes (1)
//
compound: Nc1nc2ccc(S(=O)(=O)N3CCCCC3)cc2s1
label: no (0)
//
compound: Cn1c(=O)c2c([nH]c(=S)n2Cc2ccc(Cl)cc2)n(C)c1=O
label: yes (1)
//
compound: O=C1ON=C(c2ccccc2)/C1=C\c1ccco1
label: no (0)
//
compound: COCCCNC(=S)N/N=C/c1ccc(O)cc1O
label: yes (1)
//
compound: O=C(CCSc1ccccc1)Nc1ncccn1
label: no (0)
//
compound: Cc1[nH]nc2c1C(C(C)c1ccccc1)C(C#N)=C(N)O2 (configuration not stated)
label: no (0)
//
compound: CCOC(=O)c1ccc(-c2c(-c3ccc4c(c3)OCO4)noc2-c2ccsc2)cc1F
label: no (0)
//
compound: COCCCNC(=S)N/N=C/c1ccc(O)cc1
label: yes (1)
//
compound: Cc1nonc1C1CCCN1C(=O)c1cc(COc2ccc(F)cc2F)on1 (configuration not stated)
label: no (0)
//
compound: CNC(=O)c1ccc(-c2sc3nc(N4CCOCC4)c4c(c3c2N)CCCC4)o1
label: yes (1)
//
compound: COc1cc(C2C(C#N)=C(N)Oc3n[nH]c(-c4cccnc4)c32)cc(Br)c1O (configuration not stated)
label: yes (1)
//
compound: Cc1ccc(-n2sc3ccccc3c2=O)cc1S(=O)(=O)N1CCCCC1
label: yes (1)
//
compound: COc1ccc(C(=O)/C=C(\C)Nc2ccc(NC(C)=O)cc2)cc1
label: yes (1)
//
compound: Nc1ccc(Sc2ccccc2CC(=O)O)cc1
label: yes (1)
//
compound: Nc1c(C(=O)NC2CC2)sc2nc3c(c(-c4ccco4)c12)CC/C3=C/c1ccco1
label: no (0)
//
compound: Cc1cc(NC(=O)CN2CCN(c3ccc(O)cc3)CC2)no1
label: yes (1)
//
compound: C[c-]1[c-](C)[c-](C)[c-](C)[c-]1C.[Fe].c1cc2nccc(N3CCCC3)[c-]2c1 (configuration not stated)
label: yes (1)
//
compound: CCN(CC)c1ccc(NC(=O)c2cc3c(OC)cccc3[nH]2)cc1
label: no (0)
//
compound: Nc1ccccc1-c1nc2ccccc2s1
label: no (0)
//
compound: COCCCNC(=O)c1cc2cc3cc(OC)ccc3nc2o1
label: no (0)
//
compound: O=C(Nc1ccon1)c1cc2ccccc2oc1=O
label: no (0)
//
compound: CC(=O)c1ccc2c3c(cccc13)C(=O)N(c1c(C)nn(C)c1C)C2=O
label: no (0)
//
compound: O=C(Nc1ccc(O)cc1)c1ccc(NC(=O)C2CCCO2)cc1 (configuration not stated)
label: yes (1)
//
compound: O=C(O)c1ccccc1NS(=O)(=O)c1cccc(-n2sc3ccccc3c2=O)c1
label: yes (1)
//
compound: CCCNC(=O)c1ccc2c(=O)c(O)c(-c3cccc(Br)c3)[nH]c2c1
label: no (0)
//
compound: Cc1cccc(OCC(=O)NC(=S)NNC(=O)c2ccncc2)c1
label: no (0)
//
compound: O=c1ccc2cc(O)c(O)cc2o1
label: yes (1)
//
compound: O=S(=O)(Nc1c(S(=O)(=O)c2ccccc2)c2nc3ccccc3nc2n1C1CCCCC1)c1ccccc1
label: no (0)
//
compound: O=C(CSc1nnc(CNC(=O)c2ccco2)o1)Nc1ccccc1C(F)(F)F
label: no (0)
//
compound: CNC(=O)c1ccc(-c2sc3nc(N4CCOCC4)c4c(c3c2N)CC(C)(C)OC4)o1
label: yes (1)
//
compound: COc1cc(/C=N\NC(=O)c2ccc(Cn3nc([N+](=O)[O-])c(Cl)c3C)o2)ccc1O
label: yes (1)
//
compound: OCc1ccccc1SSc1ccccc1CO
label: no (0)
//
compound: C=CCc1cccc2cc(C(=O)Nc3ccc(S(=O)(=O)Nc4nnc(CC)s4)cc3)c(=O)oc12
label: no (0)
//
compound: COCCNC(=S)N/N=C(\C)c1ccc(O)cc1
label: yes (1)
//
compound: Cc1c(C=NCCOCc2ccccc2)cnn1C
label: no (0)
//
compound: COc1cc(/C=N/NC(=O)c2ccc(Cn3cc([N+](=O)[O-])cn3)o2)cc(Br)c1O
label: yes (1)
//
compound: CCN(CC)c1ccc(NC(=O)c2ccccc2F)cc1
label: yes (1)

The reported numbers originate from PubChem BioAssay AID2501.
